Assay: in vivo
Details: male, Wistar, rat, iv, 5 mg/kg
Where a SMILES comes first, the peptide text is derived from it.

- Molecule: "CC[C@H](C)[C@@H]1NC(=O)[C@@H]2CCCN2C(=O)[C@@H]2CCCN2C(=O)[C@H](CC(=O)O)NC(=O)[C@H](CO)NC(=O)[C@H](CCCCN)NC(=O)[C@H]([C@@H](C)O)NC(=O)[C@@H]2CSSC[C@H](NC1=O)C(=O)N[C@@H](Cc1ccccc1)C(=O)N1CCC[C@@H]1C(=O)N1CCC[C@H]1C(=O)N[C@@H](CCCNC(=N)N)C(=O)N2 [Ex. 75] (HELM PEPTIDE1{R.C.T.K.S.D.P.P.I.C.F.[dP].P}$PEPTIDE1,PEPTIDE1,2:R3-10:R3|PEPTIDE1,PEPTIDE1,1:R1-13:R2$$$V2.0)"
  level at 4 h: "0.018 µg/mL"
